Measured pIC50 on human renin (Homo sapiens) follows.
Sequence (P00797 67-406): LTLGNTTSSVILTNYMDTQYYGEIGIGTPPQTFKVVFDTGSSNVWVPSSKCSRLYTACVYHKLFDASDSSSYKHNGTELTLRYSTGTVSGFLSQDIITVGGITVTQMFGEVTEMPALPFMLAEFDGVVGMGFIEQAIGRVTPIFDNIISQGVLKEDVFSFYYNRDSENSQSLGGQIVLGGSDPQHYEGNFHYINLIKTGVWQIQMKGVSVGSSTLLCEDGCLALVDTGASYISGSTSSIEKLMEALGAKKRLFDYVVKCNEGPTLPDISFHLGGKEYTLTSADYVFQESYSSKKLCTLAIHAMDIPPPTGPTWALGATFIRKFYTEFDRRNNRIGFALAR
When answering, recall that pIC50 equals minus log10 of the concentration in mol/L, and write that number alone.

Enquiry: Could you share which pIC50 value was measured for CC(C)C[C@H](O)[C@H](O)[C@H](CC1CCCCC1)NC(=O)[C@H](C)CN(C)C(=O)CCCc1ccccc1 (relative stereo) [Example 10] ?
Return: 6.94

Enquiry: Could you share which pIC50 value was measured for CC(C)C[C@H](O)[C@H](O)[C@H](CC1CCCCC1)NC(=O)[C@H](C)CNC(=O)c1cc2ccccc2[nH]1 (relative stereo) [Example 7] ?
Return: 7.59

Enquiry: Could you share which pIC50 value was measured for CC(C)C[C@H](O)[C@H](O)[C@H](CC1CCCCC1)NC(=O)[C@H](C)CNC(=O)CCc1c[nH]c2ccccc12 [Example 22] ?
Return: 7.52

Enquiry: Could you share which pIC50 value was measured for CC(C)C[C@H](O)[C@H](O)[C@H](CC1CCCCC1)NC(=O)[C@H](C)CNC(=O)c1cc(=O)c2ccccc2o1 [Example 26] ?
Return: 6.28
